Task for the reader: assign each of the following compounds its reported Percent Effect.
tested on: Wolbachia pipientis; assay: Anti-Wolbachia Cell-Based Screen; type: functional; set-up: scale not given: in the data most compounds retested in dose-response had high values; details: 5 µM
About 13,000 (27%) of roughly 48,000 compounds showed an effect of 50% or more. This is one part of the list.
Only the number, expressed in %, is required.

In: Provide Percent Effect, tested on Wolbachia pipientis, for CCS(=O)(=O)N1CCC(c2nnc(Cn3cccn3)n2C2CC2)CC1 .
Out: -1.644

In: Under Wolbachia pipientis: report Percent Effect of CCN1CCN2CCCN(S(=O)(=O)c3cccc(F)c3)C2C1=O (configuration not stated) .
Out: 4.508

In: Name the recorded Percent Effect of CC(=O)c1ccc(S(=O)(=O)N2CCCC2CN2CCCC2)cc1 (configuration not stated) , assay system Wolbachia pipientis.
Out: -61.12

In: Provide Percent Effect, recorded with Wolbachia pipientis, of Cn1ccnc1SCCNc1nccc(C(F)(F)F)n1
Out: -12.11

In: Report measured Percent Effect on Wolbachia pipientis; entry: CC(=O)NCCC1CCCCN1S(=O)(=O)c1ccc2ccccc2c1 (configuration not stated)
Out: 104.3

In: Write Percent Effect of c1csc(N2CCCN(c3ncnc4sccc34)CC2)n1 ; system used: Wolbachia pipientis
Out: 165.2

In: Given CC(=O)NCCC1CCCCN1S(=O)(=O)c1cccc(C#N)c1 (configuration not stated) , report its Percent Effect on Wolbachia pipientis.
Out: -10.91

In: GET Percent Effect | system: Wolbachia pipientis | item: Cc1ncsc1C(=O)N(C)Cc1cccc(Cl)c1
Out: -11.93

In: Quote Percent Effect with test system Wolbachia pipientis for CC(=O)NCCC1CCCCN1S(=O)(=O)c1cccc(Cl)c1 (configuration not stated)
Out: 153.7

In: Find the measured Percent Effect of N#Cc1ccc(N2CCN(c3nccs3)CC2)nc1 with Wolbachia pipientis as test system.
Out: -4.592

In: Retrieve Percent Effect on Wolbachia pipientis; query CSc1ccc(S(=O)(=O)N2CCCCC2CCNC(C)=O)cc1 (configuration not stated)
Out: -2.003

In: Specify Percent Effect for CN(C)C(=O)N1CCC2(CC1)CN(CC1CC1)CC21CCNC1=O.O=C(O)C(F)(F)F (configuration not stated) , system Wolbachia pipientis.
Out: -46.87

* * *

What Percent Effect was measured for each of the following?
test system: Wolbachia pipientis; assay: Anti-Wolbachia Cell-Based Screen; type: functional; set-up: scale not given: in the data most compounds retested in dose-response had high values; settings: 5 µM
Out of some 48,000 compounds screened, about 13,000 (27%) showed an effect of 50% or more. The list shows a part of the results.
Report as: number unit

In: Tell us which Percent Effect value is on record for CC1CCN(c2ncc3c(n2)CN(c2ccc4c(c2)OCO4)C3=O)CC1
Out: -9.746%

In: In one line, give reported Percent Effect of the entry COc1cccc(C(C(=O)O)N2CCCN(C3CCCC3)CC2)c1OC (stereo not drawn) .
Out: 17.91%

In: Using the record for Cc1cc(CNc2ccc3nc(C4CC4)sc3c2)no1 , state its measured Percent Effect.
Out: -18.62%

In: Give the value of Percent Effect reported for the following: COc1ccccc1N1CCN(C(=O)CCn2ccc(C)n2)CC1
Out: 112.7%

In: Specify measured Percent Effect for Cc1cc2nc(C(=O)NCc3cccnc3N(C)C)cc(C)n2n1 .
Out: -11.37%

In: Provide only the value of recorded Percent Effect for Cc1cnn(CCC(=O)N2CCCN(c3ccccc3C#N)CC2)c1
Out: 106.5%

In: // fetch Percent Effect given entry COCC(=O)N1CCC2(CCCN(Cc3ccc(Cl)cc3)CC2)CC1
Out: -3.814%

In: Return reported Percent Effect. Input molecule: CC(C)N1CCC(Cc2cncc(-c3cccc(C(=O)O)c3)n2)C1 (stereo not drawn)
Out: 113.7%

In: Supply reported Percent Effect belonging to this molecule: N#Cc1cccnc1N1CCCN(C(=O)CCn2cccn2)CC1
Out: 107%

In: Assign Percent Effect to the following record: Cn1cc(CCC(=O)N2CCCN(c3ncccc3C#N)CC2)cn1
Out: 89.9%

In: Dear colleague, please send me the reported Percent Effect for Cc1cnn(CCC(=O)N2CCCN(c3cccnn3)CC2)c1 when you can.
Out: 7.961%

In: Please report Percent Effect for the following molecule: CC1CCN(c2ncc(C#N)c(N)n2)CC1
Out: 102.6%

In: Quote Percent Effect reported for CC(NC1(CNC(=O)Cn2cccn2)CCOCC1)c1ccccc1 (stereo not drawn) please.
Out: -4.179%

In: Answer with the recorded Percent Effect for the molecule listed here: COc1ccccc1OC1(C(=O)O)CCN(c2nccnc2OC)CC1
Out: -49.7%

In: Specify reported Percent Effect for the molecule shown: O=C(Cn1cccn1)NCC1(c2ccccc2)CC1
Out: 8.498%

In: Please give measured Percent Effect of the following entry: N#CCCN(c1ccccc1)S(=O)(=O)CC1CCCCO1 (stereo not drawn)
Out: -2.973%

In: Give the reported Percent Effect for this molecule. Cc1ncsc1CN1CCC2(CC1)CC(=O)N(Cc1ccc(Cl)cc1)C2
Out: -0.4744%

In: Consider the molecule CC(=O)N1CCCC2(CCN(Cc3ccc(Cl)c(C(F)(F)F)c3)C2)C1 (stereo not drawn) and give its recorded Percent Effect.
Out: 13.59%

In: // fetch Percent Effect given entry Cc1cc(N)nc(SC2CCCN(Cc3ccccc3)C2=O)n1 (stereo not drawn)
Out: -26.38%

In: Look up Percent Effect of OCC(CO)Nc1ccc2c(Cl)ccc(Cl)c2n1 and report it.
Out: 1.659%

In: Give recorded Percent Effect. COCCN1CCC(Cc2cncc(-c3ccc(C(=O)O)cc3)n2)CC1
Out: 112%

In: Input O=C(CNCCn1cccn1)NCC1(c2ccccc2)CCC1 , output reported Percent Effect.
Out: 123.8%

In: // Input: CCc1c(NCc2ccncc2)cnn1CC(C)C . Output its Percent Effect only.
Out: -6.7%

In: Item Cc1cccc(C2(C(=O)NCCCn3cccn3)CC2)c1 : provide Percent Effect
Out: -18.04%

In: Identify measured Percent Effect corresponding to Cc1cnn(CCNCC(=O)NCCOc2ccccc2)c1
Out: -6.94%

In: Output Percent Effect of CCOc1ncccc1CNCc1c(C(C)C)nn(C)c1N(C)C
Out: 98.21%

In: // Input: CC(C)N1CCC(Cc2cc(-c3cccc(C(=O)O)c3)ncn2)C1 (stereo not drawn) . Output its Percent Effect only.
Out: -6.349%

In: Tell us which Percent Effect value is on record for COc1ccc(NC(C)C(=O)N2CCN(c3ccccc3)CC2)cn1 (stereo not drawn)
Out: 11.01%

In: Report measured Percent Effect; entry is CCOCC(=O)N1CC[C@H]2OCC[C@@H](c3nnc(C)o3)[C@H]2C1
Out: 13.01%

In: State its Percent Effect: CC(C)C1CN(C(=O)c2ccc(N3CCCC3)nc2)CCS1 (stereo not drawn)
Out: -8.119%

In: Tell me Percent Effect reported for CC/C=C(/C)C(=O)N1CSCC1C(=O)NC1=NCCS1 (stereo not drawn)
Out: -1.356%

In: Identify measured Percent Effect associated with Cl.Cl.O[C@@H]1C[C@@](CNCC2CC2)(COc2cccnc2)C[C@@H]1O
Out: -8.613%

In: Item CC1CCN(c2ncc3c(n2)CN(c2ccccc2)C3=O)CC1 : provide Percent Effect
Out: -3.671%

In: Kindly indicate its recorded Percent Effect. Item: N#CC1(NC(=O)CNCCn2cccn2)CCCCC1
Out: 0.8723%

In: Let me know recorded Percent Effect for Cc1ccc(S(C)(=O)=O)cc1C(=O)N(C)Cc1ccco1 , thanks.
Out: 9.899%

In: // fetch Percent Effect given entry N[C@@H]1CCN(Cc2cccc(N3CCOCC3)c2)C[C@H]1O
Out: -37.83%

In: Note Percent Effect for the molecule shown: CC(C)N1CCC(Cc2cnc(-c3cccc(C(=O)O)c3)cn2)C1 (stereo not drawn)
Out: -8.094%

In: Tell me measured Percent Effect for COc1ncccc1CNCc1c(C)nn(C)c1N(C)C please.
Out: 96.94%

In: Tell me its Percent Effect given CNC(=O)[C@@H](c1ccccc1)N1CCC[C@H]1C(=O)NCc1cccnc1.Cl.Cl as the entry.
Out: -3.423%

In: Identify the reported Percent Effect for the following entry. Cc1cnc(CNC(=O)NC2CCCN(c3ccccc3F)C2)s1 (stereo not drawn)
Out: -4.354%

In: Quote Percent Effect reported for CCOc1ccc(CN2C(=O)CC(C)(C(C)C)C2=O)nc1 (stereo not drawn) please.
Out: -23.31%

In: State, in one line, measured Percent Effect of O=C(O)C(F)(F)F.O=C(O)C(F)(F)F.c1cncc(C2COC3(CCN(Cc4cccs4)CC3)C2)c1 (stereo not drawn)
Out: 94.58%

In: Provide only the value of recorded Percent Effect for Cc1nn(C)c(N(C)C)c1CNCc1ccccc1Cn1cncn1
Out: 3.483%

In: Give recorded Percent Effect. CN1Cc2ccccc2CC1C(=O)N1CCN(CCS(C)(=O)=O)CC1 (stereo not drawn)
Out: 0.38%

In: Entry COc1cc(N2CCC(c3nccn3Cc3ccccn3)CC2)ncn1 needs its Percent Effect filled in; supply it.
Out: 2.703%

In: Determine its reported Percent Effect: Cc1cnc(NCc2ccc(S(=O)(=O)N(C)C(C)C)cc2)nc1C
Out: -3.312%

In: Answer with the recorded Percent Effect of Cc1nn(C)c(N(C)C)c1CNCc1cccnc1N(C)C only.
Out: 64.69%

In: Fill in Percent Effect for record Cc1cnn(CCNCC(=O)NCC2(c3ccccc3)CC2)c1
Out: 75.55%
